# Test system: VDR:RXRa (NR concentration 270 nM, RXRa partner concentration 90 nM)
# assay: PBM binding z-score (relative to random genomic background probes); higher = stronger binding; sequences stand for … in GC…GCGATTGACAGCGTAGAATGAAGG
Reported PBM binding z-score values are given for each entry in this list.

| monomer sequence | PBM binding z-score |
| --- | --- |
| CCTAGCAGGCCAATCTGGGTCACTTAAGGCTTGA | 0.526 |
| TCTTGTAGCTCAAAGGTTAAGAAAGCCGAAGCCT | 0.581 |
| ACAGACAGGTTAGTGAAGGTAACTCAGCTGGACG | -0.0325 |
| AGTACAGGGTCACTAGGCCAGAGTAGGTACGAAT | 3.83 |
| TCATGTAGGTAAAGGTGAAAGTCGAACGATATGA | 1.11 |
| TCATATAGATAAAAGGTGAAAGTCGGTGTGGTAA | 1.35 |
| TAAGACAGGTGAAGGTAACTCAGGTACGCAGTCG | 0.46 |
| CGTCCAAGGTCGTAGGAGGTCAGTGAAGACAGAT | 5.47 |
| GCGAATGGGGCAAAGCAGGTTACCATAAGGTTGG | 0.361 |
| CTCGAAAAGTCGTGCTCAGGTGAGTATACCAAAC | -0.141 |
| TAGCCTAGGTCATTCAGGGGCCTGTATAGAAAGC | 2.69 |
| ACAGTCAGGTGATGAAGGTAACTCAGGCTATCAT | -0.0524 |

====

# Test system: LXRb homodimer (NR concentration 270 nM)
# assay: PBM binding z-score (relative to random genomic background probes); higher = stronger binding; sequences stand for … in GC…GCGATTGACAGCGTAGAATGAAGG

| monomer sequence | PBM binding z-score |
| --- | --- |
| CATACTAGGTCACAGAGGTCAAAGTCCGTGCGTA | 2.94 |
| CCTACTGGGCCATAAGGTCATTGATATCAACGTT | 0.0476 |
| CCTAGCGGGCCAATCTGGGTCACTCAAGGCTTGA | -1.32 |
| CCTACTGGGCCATCGGGTCATTGATATCAACGTT | -0.423 |
| TCTTGTAGATCAAAGGTAAAGAAAGCCGAAGCCT | -0.436 |
| AGAATGAGGTTATTAAGATCAGGGGATTGCGGTC | -0.0318 |
| TCATATAGGGAATACAGGTGAAAGTCGGCATCTA | 0.236 |
| TGAATGAGGTTAAAGATCAGGGCACGTGGCGTCG | 0.456 |
| CATATTAGTTGACCATAAGGGCAACCGAAGCTCG | 0.928 |
| AGCACGAGGGCAATGAGTTGATAGCACGGGTGGC | -0.733 |
| CAGCCTAGATCAGGGCCAGTATAGGAGGAACGTT | -1.15 |
| TCTTGTAGATCAACAGGAGGTTCAGAAAGATCGA | -0.414 |

====

# System: PPARg DBDmut IVT, anti-PPARg (DBD mutation: PPARg1 K132A/R137A, NR concentration 270 nM)
# assay: PBM binding z-score (relative to random genomic background probes); higher = stronger binding; sequences stand for … in GC…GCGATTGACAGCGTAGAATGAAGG

| monomer sequence | PBM binding z-score |
| --- | --- |
| GCTATTAGTTGACAGGGCAACCGAATGATTCTCG | 0.353 |
| ACTATTAGTTGAGACGTGGGCAACCGATAGGTTG | 0.352 |
| GCGACTGGTGCATCAGCAGGTTACCATAACTTAA | -0.356 |
| CAAACTAGGTTAAAGGTCAAAGTCGAGCCAACCA | 3.37 |
| ATAGAAAGGTCGAGGTGAGTATAGAGAAAGGGAA | 0.872 |
| TCTGCTAGGTTAGTTGGTCAGCTAACGAGCTGCC | -0.918 |
| AGAACGAGTGCAATGAGTTGATAGCACGGGTGGC | -0.15 |
| CCGGGTAGGTTATGGGGCATTCAGGCAACGGTGA | -0.773 |
| CCGACTGGGGCAGAAAGGTTGCCATACCATCCGG | -1.54 |
| CTACCAAGGTGAACAAGGTCGTCGATTACTATTC | -0.426 |
| GCGACTGGAGCATCAGCAGGTTACCATAACTTAA | -0.56 |
| TTTCGGAGGACACGAAAGGTCAGAGCTCGACATC | 0.278 |
| CCTCGGAGGACAACAGGAGGTAAGAGCTGCCAGA | -1.44 |
| CGAACGAGGGCATGAGTTGACAGCAAATGCCGAT | -0.439 |
| TATACAGGGTCAAAGGCTAGAGTACGAATGTCGA | 2.03 |
| CAGACTAGGTCACAGAGGTCAAAGTCCGTGCGTA | 0.704 |
| CCTGCTAGGTCATGGTCAGATAATCTACAGTATG | 0.147 |
| GGGACGAGGGCAAGTTGATAGCAGAGTTTGATGG | 0.569 |
| AGATTGAGGTTAAGATCAGGGAAACAGAATACAT | 1.38 |
| CGTCCAAGGTCATAGGAGGTCAGCGAAGACAGAT | -0.611 |
| ATCTCTAAGTAACAAGTTCAGTGAAAGAGAGGAC | 0.883 |
| TCGATTAGTTGAAGGGCAACCGACGAGTCCGTTT | 0.136 |
| GATACAGGGTCAGCTAGAGGCCAGAGTGTGGAAA | -0.662 |
| TAGCCTAGGTCATCCGGGCCAGTATAGTGTCGGC | -0.657 |
| CCTACTGGGCTAAAGGTCATTGATTCCAATGCTC | -0.112 |
| TTACCAAGGTGAGCCGAGGTCGTTGATCCAACTC | 0.067 |
| TATCCAGGGTCAAAGGCCAGAGTACGAATGTCGA | 1.96 |
| TAGCCTAGGTCATGCGGGGCAGTATAGTGTCGGC | -0.0244 |
| TCTGCTAGGTCAACGATGGTAAGCTAATCTGCTA | -0.213 |
| AATACAGGGTCACTACGCCAGAGTAGGTACGAAT | 1.71 |
| GCGACTGGGGCATCAGCAGGTTAGCATAACTTAA | -1.09 |
| GGAACGAGGGCAAGTTGATTGCAGAGTTTGATGG | -0.675 |
| TTACCAAGGTGAAGGGTCGTTGATGCACGCCTTG | -0.561 |
| CCTACTGGGCCGAAAAGGTCATTGATGCCGATAA | -1.05 |
| CCTCGGAGGACTACAGGAGGTCAGAGCTGCCAGA | -2.28 |
| CCAGACAGGTGAGAAGGTAACTGAGCCTCGATTA | -0.535 |
| CGTCCAAGATCAATGCTAGGTCAGTGAAAGCATT | 0.071 |
| CAAACTAGGTCACCTGAAGGTCAAAGTCCGCATG | 0.822 |
| TCAAATAGGTAAAGGTGAAAGTCGAACGATATGA | 0.968 |
| GGAACGAGGGCAAAATTGATAGCATCTGTCGACG | -0.0358 |
| CGTCAAAGTTCAACTAAGGTAACGAAAAGCACGC | 0.747 |
| ATCTCTAGGTAAGGCTCAGTTCAGTGAAGAACGC | 1.33 |
| TAGCCTAGGTCATGTGCCAGTATACCACGCGAAC | 0.0439 |
| ATTTACGGGTCAACGAGGTTATAGCACGCGTATA | 2.5 |
| AATATAGGGTCATCGTAGGCCAGAGTACGCACAG | 1.99 |
| TCATATAGGTAATGCAGGTGAAAGTCGGCATCTA | 1.17 |
| CAAATTAGGTCAAGGTCAAAGTCGGTTTGTGCCA | 1.94 |
| CGAACTAGGTCATCCATGACAGTGAATACATTGA | 1.2 |
| CCTGCTAGGTCGTGGTCAGCTAATCTACAGTATG | -0.828 |
| TCATATAGGTAATAGAGGTGAAAGTCGGCATCTA | 0.929 |
| ACTATTAGCTGAGACGAGGGCAACCGATAGGTTG | -0.0358 |

====

# Tested on: PPARg DBDmut:RXRa IVT, anti-PPARg (DBD mutation: PPARg1 K132A/R137A, NR concentration 270 nM, RXRa partner concentration 90 nM)
# assay: PBM binding z-score (relative to random genomic background probes); higher = stronger binding; sequences stand for … in GC…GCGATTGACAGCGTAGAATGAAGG
Record True whenever PBM binding z-score is at 0.9 or higher; record False when lower.

| monomer sequence | assigned class |
| --- | --- |
| TCTCCTAGGTCAGTTGGTCAGCTAACGAGCTGCC | True |
| ATCTCTAGGTAAAAGTTCAGTGAGTCCCGAGGAT | True |
| ACTCAAAGTTCAGGACGAGGTAACGTAAAGCACG | False |
| CAAGCTAGGTCACCGGAAGGTCAAAGTCCGCATG | False |
| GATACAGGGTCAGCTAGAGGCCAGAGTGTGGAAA | False |
